Each entry below carries its reported cell viability.
# Test system: Calu-3
# TEST_METHOD_NOTES: cell viability relative to DMSO; higher = less toxic
# DETAILS: 72 h; 100 nM
Number in %, nothing else.

Examples with their reported cell viability follow.
>  <CPD_SMILES>
CC1(C)C(/C=C/C=C/C=C/C=C2\N(CCCCS(=O)(=O)O)c3ccc4ccccc4c3C2(C)C)=[N+](CCCCS(=O)(=O)[O-])c2ccc3ccccc3c21

>  <UNITS_SYMBOL>
%

>  <cell viability>
91.6

$$$$
>  <CPD_SMILES>
CCCCCCCCCCCCCCCC[n+]1ccccc1

>  <UNITS_SYMBOL>
%

>  <cell viability>
105

$$$$

Let us move to another entry and its cell viability.
Ask: Let me know recorded cell viability for CC(=O)N1N=C(c2ccc(N)cc2)c2cc3c(cc2C[C@H]1C)OCO3 , thanks.
Result: 98.2
